Assignment: determine reported IC50 for the given compounds.
# measurement.target: EGFR L858R (Homo sapiens, UniProt P00533, L858R)
# Sequence (P00533 25-1210 L858R): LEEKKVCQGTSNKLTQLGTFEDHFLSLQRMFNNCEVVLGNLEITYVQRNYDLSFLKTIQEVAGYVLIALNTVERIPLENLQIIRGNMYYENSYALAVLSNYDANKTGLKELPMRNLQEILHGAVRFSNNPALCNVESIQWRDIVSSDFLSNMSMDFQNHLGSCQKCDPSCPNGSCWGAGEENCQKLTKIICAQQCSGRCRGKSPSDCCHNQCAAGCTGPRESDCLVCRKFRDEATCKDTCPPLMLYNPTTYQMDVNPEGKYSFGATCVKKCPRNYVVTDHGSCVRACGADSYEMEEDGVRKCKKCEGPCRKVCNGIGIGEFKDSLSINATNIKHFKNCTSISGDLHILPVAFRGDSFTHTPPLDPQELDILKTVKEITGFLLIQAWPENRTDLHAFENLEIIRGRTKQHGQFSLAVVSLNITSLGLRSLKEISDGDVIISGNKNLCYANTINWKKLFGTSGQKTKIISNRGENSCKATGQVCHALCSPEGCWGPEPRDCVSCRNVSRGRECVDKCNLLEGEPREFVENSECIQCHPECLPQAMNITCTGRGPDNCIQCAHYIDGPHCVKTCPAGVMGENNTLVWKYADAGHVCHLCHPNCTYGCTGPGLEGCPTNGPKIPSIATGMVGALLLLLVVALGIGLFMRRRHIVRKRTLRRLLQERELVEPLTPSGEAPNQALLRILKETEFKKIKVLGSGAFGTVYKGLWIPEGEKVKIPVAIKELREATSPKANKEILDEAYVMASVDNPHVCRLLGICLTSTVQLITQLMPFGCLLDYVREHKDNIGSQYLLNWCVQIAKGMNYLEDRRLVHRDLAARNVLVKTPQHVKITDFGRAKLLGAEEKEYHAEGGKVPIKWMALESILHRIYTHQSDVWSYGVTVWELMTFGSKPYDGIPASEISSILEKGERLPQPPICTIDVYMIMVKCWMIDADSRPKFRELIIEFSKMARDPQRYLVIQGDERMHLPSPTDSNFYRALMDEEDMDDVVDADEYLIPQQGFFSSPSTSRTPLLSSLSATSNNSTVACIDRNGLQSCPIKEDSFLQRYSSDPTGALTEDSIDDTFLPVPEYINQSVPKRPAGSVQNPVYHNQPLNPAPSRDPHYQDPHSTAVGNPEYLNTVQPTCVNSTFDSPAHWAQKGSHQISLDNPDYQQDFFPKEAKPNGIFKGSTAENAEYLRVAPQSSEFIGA
# assay: Lance assay, EGFR L858R
# assay.setup: biochemical Lance assay

Examples with answers:
Form field: reported IC50 of C=CC(=O)Nc1cc(-c2c(-c3cnn(CC(C)O)c3)[nH]c3ncc(C(=O)OC(C)C)c(C)c23)ccc1C (stereo not drawn)
≤ 50 nM

Form field: reported IC50 of C=CC(=O)Nc1cc(-c2c(-c3cnn(C)c3)[nH]c3ncc(-c4cn(C)nc4C)cc23)ccc1C
≤ 50 nM

Continuing:
Form field: reported IC50 of C=CC(=O)Nc1cc(-c2c(-c3cnn(C)c3)[nH]c3ncc(-c4cnn(C)c4)cc23)ccc1C [Example 26, 2,2,2-trifluoroacetate]
≤ 50 nM

Source listed as patent EP3868759A1.
